target: Retinaldehyde dehydrogenase 3 (Homo sapiens); assay: qHTS for Inhibitors of the Aldehyde Dehydrogenase Family (ALDH1A3) Confirmatory screens (AID 2061311); conditions: ALDH inhibition qHTS; series mostly up to 46 µM; note: nearly all actives have a fitted effect of over 60% in size
Inconclusive results are not listed. Activity calls are given as the source filed them. Calls come from the whole dose curve; as a rule, active = well fitted inhibition curve with a large enough effect; inconclusive = small, poorly fitted or top-dose-only effect; inactive = no such curve, though single readings can be large or run the other way.
Log the outcome using a class from active, inactive

Q) State the result this test recorded for `N[C@@H]1CCN(c2cnc3c(O)ccc(C(=O)O)c3c2)C1` .
A) active

Q) Recorded test call requested for `Cc1ccc(CNc2ncnc3ccc(-c4oc(-c5ccccc5)nc4C)cc23)o1`
A) active

Q) Tell me the assay call for `N#Cc1ccccc1NC(=O)Cn1cnc2onc(-c3cccc(F)c3)c2c1=O` please.
A) inactive

Q) Give the logged outcome of this assay for the following compound: `Cc1cccc(C(=O)NCc2nnc3cc(-c4nc(C)no4)ccn23)c1`
A) inactive

Q) Write down the call the test reported for this compound. Item: CC(=O)NC(c1cc(Cl)c2ccccc2c1O)C(C)C (centres undefined)
A) active

Q) Call for entry `CN(Cc1ccc(-c2ccccc2)cc1)CC1CCCCC1` :
A) active

Q) Hi, do you know how `COc1ccc(-c2c(NC(C)=O)sc3c2CCNC3)cc1` came out in this test?
A) inactive

Q) Dear colleague, could you share the recorded outcome for `CC(=O)Nc1ccc(OCc2cccc(-c3nc4ccccc4c(=O)n3Cc3ccco3)c2)cc1` when you have a moment?
A) active

Q) Kindly provide the recorded test outcome for the following compound: `O=[N+]([O-])c1ccccc1S(=O)(=O)Nc1cccc2cccnc12`
A) active

Q) Per the records of this test, what outcome belongs to `Cc1cnc(-c2ccccc2N(C)C)nc1NCc1ccc(-c2cccnc2)cc1` ?
A) active

Q) How was Cc1ccc2nc3sc(C(=O)NC4CCC(O)CC4)cc3cc2c1 (centres undefined) classified in this test?
A) active

Q) Outcome logged for `O=C(Nc1cccc(-c2ccc(N3CCOCC3)nn2)c1)Nc1cccc(C(F)(F)F)c1` in this assay:
A) inactive

Q) Given `COc1cccc(N2CCN(c3nc(C(=O)NCc4cccc(C)c4)cs3)CC2)c1` , state the outcome it received in this test.
A) inactive

Q) Tell me the assay call for `COc1ccc(-n2c(C)c(C(C)=O)c3cc(OC(=O)COc4ccccc4)ccc32)cc1` please.
A) inactive

Q) Just curious, what result did `CCOc1ccccc1NC(=O)Nc1cc(C(=O)NCc2ccc(C)cc2)ccc1N1CCCC1` get here?
A) inactive

Q) Any idea what this test logged for `CN1C(=O)Cc2cc([S+](=O)([O-])N3CCN([S+](=O)([O-])c4c(F)cccc4F)CC3)ccc21` ?
A) inactive

Q) What did this assay record as the result for `C/C(=C\c1cccc(C(F)(F)F)c1)C1Nc2cccc3cccc(c23)N1` ?
A) active

Q) So what was the verdict on `COc1ccc(CNC(=O)c2cc3c(=O)n(Cc4ccc(OC)cc4)ccc3nc2C)cc1` in this test?
A) inactive

Q) # fetch the recorded call for `O=C(O)c1ccc2c(c1)C(=O)N(CCc1ccc(O)cc1)C2=O` here
A) inactive

Q) Each compound tested received a call. Report the one for `NC(=O)C1CCN(c2ncc(-c3ccc(Br)cc3)s2)CC1` .
A) active

Q) Outcome logged for `Cc1ccc(NC(=O)CN2C(=O)N/C(=C\c3ccco3)C2=O)cc1` in this assay:
A) active

Q) Could you kindly confirm the outcome this assay logged for `O=C(OCC#CCSc1nnc(-c2cccc3ccccc23)o1)c1ccncc1` ?
A) active

Q) Hi, do you know how `Oc1ccccc1C1Nc2cccc3cccc(c23)N1` came out in this test?
A) active

Q) Please share the test call associated with `Cc1ccc(S(=O)(=O)Nc2cnccc2C(=O)Nc2ccc(N3CCOCC3)cc2)cc1` .
A) active

Q) Look up the recorded call for `CNC(=O)c1cccc(-c2ccc(C(C)(C)C#N)cc2)n1` in this test.
A) active

Q) Short answer needed: outcome of this test for `CC(=O)Nc1sc2c(c1-c1ccc(N(C)C)cc1)CCNC2` ?
A) active

Q) Test call for this compound, please: `COc1ccc(-n2c(C)c(C(C)=O)c3cc(O)ccc32)cc1`
A) inactive

Q) Query: recorded result category for `CC(=O)N1CCN(c2ccc(NCc3ccccc3)cc2)CC1` in this test
A) active

Q) Which outcome was entered for the compound `CN1Cc2nc(Nc3ccc(C(F)(F)F)cc3)ccc2OCC1=O` in this test?
A) active

Q) Entry `Cc1ccc(CN(C)c2ncnc3ccc(-c4ccc(C#N)n4C)cc23)o1` : call = ?
A) active

Q) Assay outcome for `COc1ccc2c(c1)c(C(=O)CN(C)C)c(C)n2C` : what was it?
A) inactive

Q) Outcome? CC(=O)NC(C)c1cc(F)c2cccnc2c1O (centres undefined)
A) active

Q) Outcome logged for CC(=O)Nc1ccc(CN2CCCC(N3CCN(c4ccccc4)CC3)C2)cc1 (centres undefined) in this assay:
A) inactive

Q) For `COc1ccc(-n2c(C)c(C(C)=O)c3cc(OC(=O)c4ccc(C)cc4)ccc32)cc1` , what call appears in the results of this test?
A) inactive

Q) Fill in: this test's call for `O=c1[nH]c(CN2CCOCC2)nc2sc3c(c12)CCCC3` is ___
A) inactive

Q) Per the records of this test, what outcome belongs to `Cc1ccc(NC(=O)CN2C(=O)N/C(=C\c3cccn3-c3ccc(C(=O)O)cc3)C2=O)cc1` ?
A) inactive

Q) # lookup: test call for `N#Cc1ccc(N2CCN(S(=O)(=O)c3ccc4c(c3)CC(=O)N4)CC2)cc1`
A) active

Q) Record request — test call for `Cc1cc(NS(=O)(=O)c2ccc(Nc3nc(-c4ccc(C)c(C)c4)cs3)cc2)no1`
A) inactive

Q) Call for entry `COc1ccc(-c2ccccc2C(=O)NCc2ccccn2)nn1` :
A) inactive

Q) Check the results log: what was the call for `Cc1cc(C)nc(NC(=S)N2CCN(c3ccc4cn(C)nc4c3)CC2)c1` ?
A) active

Q) Could you kindly confirm the outcome this assay logged for Nc1nc2c(s1)C(c1ccccc1Cl)CC(=O)N2 (centres undefined) ?
A) active

Q) Assay result, entry `COc1ccc(C(=O)N(Cc2ccco2)Cc2ccco2)c(O)c1` — outcome?
A) inactive

Q) Each compound tested received a call. Report the one for `Cc1ccnc(NCc2ccc(O)c3ncccc23)c1` .
A) active

Q) // return assay outcome for `Cc1ccc(Oc2nc3c(c(=O)n(Cc4ccccc4Cl)c(=O)n3C)n2C)cc1C`
A) inactive
